Parameter: Conjugate binding affinity ELISA. Scope: all listed entries.
Biological target: T1, cynomolgus monkey transferrin receptor 1 (cTfR1) (cynomolgus monkey (Macaca fascicularis), UniProt Q5RDH6 89-760 (Pongo abelii entry), limits assumed)
T1 construct: Recombinant cynomolgus TfR1; also called cyTfR1; cyno TfR1
T1 chain: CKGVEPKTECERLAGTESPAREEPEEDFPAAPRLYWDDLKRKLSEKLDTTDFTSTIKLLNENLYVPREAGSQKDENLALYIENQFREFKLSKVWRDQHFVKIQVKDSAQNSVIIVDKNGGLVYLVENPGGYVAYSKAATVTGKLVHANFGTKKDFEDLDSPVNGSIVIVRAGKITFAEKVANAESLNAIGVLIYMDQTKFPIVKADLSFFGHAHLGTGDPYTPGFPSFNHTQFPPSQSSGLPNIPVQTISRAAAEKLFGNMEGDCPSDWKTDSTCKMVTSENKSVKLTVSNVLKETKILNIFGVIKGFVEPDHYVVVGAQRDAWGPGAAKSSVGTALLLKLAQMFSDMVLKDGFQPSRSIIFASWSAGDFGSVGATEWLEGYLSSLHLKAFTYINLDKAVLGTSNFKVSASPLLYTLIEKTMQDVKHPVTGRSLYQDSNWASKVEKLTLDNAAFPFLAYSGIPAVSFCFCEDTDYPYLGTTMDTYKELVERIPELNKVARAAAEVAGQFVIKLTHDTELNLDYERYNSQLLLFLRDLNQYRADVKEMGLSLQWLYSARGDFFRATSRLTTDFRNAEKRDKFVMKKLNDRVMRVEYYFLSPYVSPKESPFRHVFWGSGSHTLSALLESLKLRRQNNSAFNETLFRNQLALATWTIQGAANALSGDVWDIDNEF
Experiment: ELISA on plate-coated cyno TfR1, Fab-ASO300 conjugate
State the answer as a number, implicitly in nM.

Some binders with known Conjugate binding affinity ELISA results, for comparison:
1) humanized anti-TfR Fab 3M12 VH3/Vk2 conjugated to DMPK-targeting oligonucleotide ASO300 (Fab, V domains shown, Fab conjugated to oligonucleotide ASO300; chain and residue not stated, Fab-oligonucleotide conjugate; The protein chains are those of the unconjugated Fab) VH: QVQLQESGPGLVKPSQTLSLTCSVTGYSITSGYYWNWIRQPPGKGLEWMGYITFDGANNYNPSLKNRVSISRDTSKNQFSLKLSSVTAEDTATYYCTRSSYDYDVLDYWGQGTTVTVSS VL: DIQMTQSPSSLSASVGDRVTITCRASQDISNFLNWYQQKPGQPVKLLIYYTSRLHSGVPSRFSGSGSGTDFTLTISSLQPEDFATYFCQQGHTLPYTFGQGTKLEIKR | 2.9
2) humanized anti-TfR Fab 3A4 VH3 (N54T)/Vk4 conjugated to DMPK-targeting oligonucleotide ASO300 (Fab, V domains shown, Fab conjugated to oligonucleotide ASO300; chain and residue not stated, Fab-oligonucleotide conjugate; The protein chains are those of the unconjugated Fab) VH: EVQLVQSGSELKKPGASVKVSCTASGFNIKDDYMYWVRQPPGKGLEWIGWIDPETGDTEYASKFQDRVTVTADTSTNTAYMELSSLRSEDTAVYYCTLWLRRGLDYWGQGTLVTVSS VL: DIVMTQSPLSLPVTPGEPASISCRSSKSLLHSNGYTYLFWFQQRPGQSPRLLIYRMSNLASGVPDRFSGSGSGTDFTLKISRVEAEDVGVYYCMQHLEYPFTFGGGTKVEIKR | 4.7

Incoming: What does the data say about its Conjugate binding affinity ELISA? Entry: humanized anti-TfR Fab 5H12 VH5 (C33Y)/Vk4 conjugated to DMPK-targeting oligonucleotide ASO300 (Fab, V domains shown, Fab conjugated to oligonucleotide ASO300; chain and residue not stated, Fab-oligonucleotide conjugate; also called 5H12 (VH4-C33Y/Vk4) conjugate) VH: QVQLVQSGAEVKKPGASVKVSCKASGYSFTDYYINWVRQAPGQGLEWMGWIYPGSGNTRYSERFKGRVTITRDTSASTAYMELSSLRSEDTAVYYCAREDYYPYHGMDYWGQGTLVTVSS VL: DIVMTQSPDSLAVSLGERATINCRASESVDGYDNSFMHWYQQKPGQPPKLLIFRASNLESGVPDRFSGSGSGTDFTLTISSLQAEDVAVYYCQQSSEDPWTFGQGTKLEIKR
Outgoing: 3.3
